settings: buffer; pH 7.4; 200.0 µM
Could you label it criterion met if measured solubility kinetic is 6 µg/mL or higher, and criterion not met otherwise?

Solved cases below.
- molecule: "S=C(c1ccc(OCc2ccccc2)cc1)N1CCCC1"
  class: "criterion not met"
- molecule: "COc1cc(/C=C/C(=O)OCC(=O)NCCC2=CCCCC2)cc(OC)c1OC"
  class: "criterion met"
- molecule: "COc1ccc(NC(=O)CC(NC(C)c2ccccc2)C(=O)O)cc1 (stereo not given)"
  class: "criterion met"

**Q:** Hello, I need to know if CC(=O)NC(C(=O)c1ccccc1)N1CCCCC1 (stereo not given) has measured solubility kinetic not below 6 µg/mL. Thanks!
**A:** criterion met

**Q:** Textbook exercise: given the entry COc1ccc(N2CC(C(=O)NC3CCSC3=O)CC2=O)cc1 (stereo not given) , state whether its solubility kinetic is greater than or equal to 6 µg/mL.
**A:** criterion met

**Q:** # check: solubility kinetic of Cc1cc2nc3c(nc2cc1C)CCCC3 is greater than or equal to 6 µg/mL
**A:** criterion met

**Q:** Is reported solubility kinetic greater than or equal to 6 µg/mL here: COCCNC(=O)C12CC3CC(CC(Cl)(C3)C1)C2
**A:** criterion met

**Q:** Would you say COc1ccc(NC(=O)Cc2ccc(C)c(C)c2)cc1S(=O)(=O)N1CCCCC1 shows solubility kinetic at minimum 6 µg/mL?
**A:** criterion met

**Q:** Does O=C(c1cc(F)ccc1F)C1CCCN(Cc2cccc(Cl)c2)C1 (stereo not given) have a reported solubility kinetic of at least 6 µg/mL?
**A:** criterion not met

**Q:** Please indicate if the recorded solubility kinetic for CN1CCCN(C(=O)c2cccc3ccccc23)CC1 meets or exceeds 6 µg/mL.
**A:** criterion met
